# inhibition per entry
- Test system: Epidermal growth factor receptor (Homo sapiens), P00533 [L858R,T790M]
- Sequence (P00533 whole entry T790M/L858R, looked up): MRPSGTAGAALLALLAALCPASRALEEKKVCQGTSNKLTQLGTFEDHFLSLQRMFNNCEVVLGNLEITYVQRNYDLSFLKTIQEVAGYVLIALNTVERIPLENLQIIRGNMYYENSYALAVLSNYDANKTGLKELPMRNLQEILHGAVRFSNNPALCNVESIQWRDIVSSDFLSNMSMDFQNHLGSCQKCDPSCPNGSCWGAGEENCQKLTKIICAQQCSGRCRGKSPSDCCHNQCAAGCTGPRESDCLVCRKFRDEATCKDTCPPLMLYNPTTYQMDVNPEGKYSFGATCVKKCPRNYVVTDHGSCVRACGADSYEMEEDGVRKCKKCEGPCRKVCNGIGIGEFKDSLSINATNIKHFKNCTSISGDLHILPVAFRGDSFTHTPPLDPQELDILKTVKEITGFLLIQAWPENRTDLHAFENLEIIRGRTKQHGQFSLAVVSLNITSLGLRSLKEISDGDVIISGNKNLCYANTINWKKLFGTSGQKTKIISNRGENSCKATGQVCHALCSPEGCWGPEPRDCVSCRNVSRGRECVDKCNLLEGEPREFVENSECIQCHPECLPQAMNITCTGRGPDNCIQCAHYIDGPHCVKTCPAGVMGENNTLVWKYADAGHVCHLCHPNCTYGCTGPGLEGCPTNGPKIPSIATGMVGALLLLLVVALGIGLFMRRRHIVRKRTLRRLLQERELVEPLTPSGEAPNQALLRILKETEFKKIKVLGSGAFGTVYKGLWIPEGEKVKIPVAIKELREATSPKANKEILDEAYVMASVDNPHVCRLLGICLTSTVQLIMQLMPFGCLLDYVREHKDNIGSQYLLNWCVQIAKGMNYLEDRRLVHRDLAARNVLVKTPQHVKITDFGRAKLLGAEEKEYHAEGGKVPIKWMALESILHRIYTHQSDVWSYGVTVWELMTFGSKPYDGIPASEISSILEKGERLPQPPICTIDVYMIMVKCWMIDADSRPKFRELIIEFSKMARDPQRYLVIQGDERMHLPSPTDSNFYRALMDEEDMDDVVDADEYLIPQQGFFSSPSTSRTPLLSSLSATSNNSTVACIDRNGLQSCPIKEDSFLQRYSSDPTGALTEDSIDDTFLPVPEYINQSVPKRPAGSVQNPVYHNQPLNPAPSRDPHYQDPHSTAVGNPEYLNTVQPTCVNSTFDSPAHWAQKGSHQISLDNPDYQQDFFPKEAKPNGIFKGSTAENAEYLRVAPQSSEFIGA
- recorded.conditions: at 0.1 µM
assay.endpoint: inhibition (%)

[[record]]
compound = "Cc1c2ccc(N(C)c3ccnc(Nc4cccc(S(N)(=O)=O)c4)n3)cc2nn1C"
assay_endpoint = "inhibition"
reported = 2.62

[[record]]
compound = "Cn1c(-c2nonc2N)nc2cnccc21"
assay_endpoint = "inhibition"
reported = -1.07

[[record]]
compound = "COc1c(C(N)=O)cc(-c2ccc(Cl)cc2)cc1-c1ccc(S(N)(=O)=O)cc1"
assay_endpoint = "inhibition"
reported = -1.73

[[record]]
compound = "NS(=O)(=O)c1ccc(N/N=C2\\C(=O)Nc3cccc(CCc4ccncc4)c32)cc1"
assay_endpoint = "inhibition"
reported = -0.13

[[record]]
compound = "Cc1nnc(-c2cccc(-c3ccc(C(=O)NCC4CC4)cc3)c2)o1"
assay_endpoint = "inhibition"
reported = 2.93

[[record]]
compound = "CCN1CCC(C(=O)Nc2n[nH]c3nnc(-c4cccc(F)c4F)cc23)CC1"
assay_endpoint = "inhibition"
reported = 0.75

[[record]]
compound = "CCOc1ccc2c(-c3ccnc(Nc4cc(OC)cc(C(F)(F)F)c4)n3)cnn2n1"
assay_endpoint = "inhibition"
reported = 0.87

[[record]]
compound = "CC1=C(C(=O)Nc2ccc3[nH]nc(C)c3c2)C(c2ccc(C(F)(F)F)cc2)CC(=O)N1 (stereo unspecified)"
assay_endpoint = "inhibition"
reported = 3.65

[[record]]
compound = "COC(=O)Nc1nc2cc(Oc3ccc(NC(=O)Nc4ccccc4)cc3)ccc2[nH]1"
assay_endpoint = "inhibition"
reported = -2.44

[[record]]
compound = "OCCCNc1nccc(-c2c(-c3ccc(F)cc3)nn3cc(C(F)(F)F)ccc23)n1"
assay_endpoint = "inhibition"
reported = -1.34

[[record]]
compound = "CCS(=O)(=O)c1ccc(OC)c(Nc2ncc(-c3cccc(F)c3)o2)c1"
assay_endpoint = "inhibition"
reported = 5.67

[[record]]
compound = "CNC(=O)c1cncc(/C=C/c2ccccc2C)c1"
assay_endpoint = "inhibition"
reported = 1.98

[[record]]
compound = "NS(=O)(=O)c1ccc(N/N=C2\\C(=O)Nc3ccc(C(=O)NCc4ccncc4)cc32)cc1"
assay_endpoint = "inhibition"
reported = 0.1

[[record]]
compound = "N#Cc1cccc(Nc2ncc(-c3ccccc3)o2)c1"
assay_endpoint = "inhibition"
reported = 0.29

[[record]]
compound = "O=C1Nc2ccccc2/C1=C1\\CCc2cc(O)ccc21"
assay_endpoint = "inhibition"
reported = 1.8

[[record]]
compound = "COC(=O)Nc1nc2ccc(Oc3ccc(NC(=O)Nc4cc(C(F)(F)F)ccc4F)cc3)cc2s1"
assay_endpoint = "inhibition"
reported = 1.64

[[record]]
compound = "Cc1ccc(-c2cc3c(NC(=O)C4CC4)ncnc3o2)cc1"
assay_endpoint = "inhibition"
reported = 1.96

[[record]]
compound = "c1cnn2ncc(-c3ccnc(NCCCN4CCOCC4)n3)c2c1"
assay_endpoint = "inhibition"
reported = -1.49

[[record]]
compound = "NC(=O)c1ccc2c(-c3ccnc(NCCCO)n3)c(-c3ccc(F)cc3)nn2c1"
assay_endpoint = "inhibition"
reported = 4.41

[[record]]
compound = "CNC(=O)c1sc(-n2cnc3cc(OC)c(OC)cc32)cc1OCc1ccccc1C(F)(F)F"
assay_endpoint = "inhibition"
reported = 0.49

[[record]]
compound = "NS(=O)(=O)c1cccc(N/C=C2\\C(=O)Nc3ccccc32)c1"
assay_endpoint = "inhibition"
reported = 2.94

